Ref: paper PMC5540273

- Tested on: FLT4
- Experimental conditions: concentration: 1 μM, replicates: in singlicate; n = 1;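 further: KINOMEscan kinase panel screen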
Quantity: %Inh (%)
Report only the number, with the unit % understood.

Item O=C(c1ccc(-c2cc(-c3c[nH]nc3-c3ccccn3)ccn2)cc1)N1CCCC1 [GW792479] has what recorded %Inh?
0

Item CC(=O)Nc1n[nH]c2ncc(-c3ccccc3)cc12 [SB-548492] has what recorded %Inh?
0

Item Nc1nc(-c2cccnc2)c(-c2ccnc3ccccc23)s1 [GW684083] has what recorded %Inh?
0

Item FC(F)(F)c1ccc(-c2nn3ncccc3c2-c2ccnc(Nc3cccc(C(F)(F)F)c3)n2)cc1 [GW828205] has what recorded %Inh?
8

Item CC(C)(C)OC(=O)NC1CCCN(c2cc(-c3ccc4c(N)n[nH]c4c3)nc(N)n2)C1 (centres unmarked) [GSK2286096] has what recorded %Inh?
0

Item Fc1cccc(COc2ccc(Nc3ncnc4cc[nH]c34)cc2Cl)c1 has what recorded %Inh?
0

Item FC(F)(F)c1ccc(-c2cc(-c3c[nH]nc3-c3ccccn3)ccn2)cc1 [GW599550] has what recorded %Inh?
17

Item O=C(NCCCN1CCCC1=O)c1cnc(NCc2cc(Cl)ccc2Cl)nc1NC1CCNCC1 has what recorded %Inh?
7

Item O=C(CCO)NCCn1ccc2ncnc(Nc3ccc(Oc4cccc(C(F)(F)F)c4)c(Cl)c3)c21 has what recorded %Inh?
0

Item CC(C)(C)c1ccc(-n2cnc3c(N)ncnc32)cc1 [SKF-97263] has what recorded %Inh?
15

Item O=C(Nc1ccccc1)Nc1ccc(Oc2ccc3nccn3n2)cc1 has what recorded %Inh?
6

Item Fc1ccc(Nc2nccc(-c3c(-c4ccc(Cl)cc4)nn4ncccc34)n2)cc1F [GW829058] has what recorded %Inh?
1

Item CNc1nccc(-c2c(-c3ccc(F)cc3)ncn2C2CCN(C)CC2)n1 [SB-222903] has what recorded %Inh?
0

Item Nc1nc(-c2ccc3c(N)n[nH]c3c2)cc(N2CCC[C@@H](C(=O)Nc3ccccc3)C2)n1.O=C(O)C(F)(F)F.O=C(O)C(F)(F)F [GSK2288359] has what recorded %Inh?
0

Item COC(=O)c1cccc(NC(=O)NCCNc2ccnc(Nc3ccc(F)cc3)n2)c1 [GSK1379883] has what recorded %Inh?
17

Item CS(=O)(=O)CCNCc1nc(-c2ccc3ncnc(Nc4ccc(OCc5cccc(F)c5)c(Cl)c4)c3c2)cs1.Cl [GW583340] has what recorded %Inh?
0

Item Cc1ccc(NC(=O)c2cccc(C#N)c2)cc1-c1ccc(C(=O)Nc2ccncc2)cc1 [GSK1398463] has what recorded %Inh?
12

----------
Please provide measured %Inh for the entries that follow.
- Test system: ERK1
- Construct: gene MAPK3
- Experimental conditions: concentration: 1 μM, replicates: in singlicate; n = 1

Item COC(=O)c1c(-c2ccccc2)c2cc(Cl)ccc2c(=O)n1Cc1ccc(S(C)(=O)=O)cc1 has what recorded %Inh?
0%

Item Cc1cccc(-c2nc(Nc3ccc4[nH]nnc4c3)c3ccccc3n2)n1 has what recorded %Inh?
0%

Item Nc1n[nH]c2nnc(-c3ccccc3)cc12 has what recorded %Inh?
0%

Item COc1ccc(Nc2nccc(N3CCC(NC(=O)Nc4ccc5c(c4)OCO5)C3)n2)cc1 (stereo not drawn) has what recorded %Inh?
3%

Item COc1ccc(-c2oc3ncnc(N)c3c2-c2ccc(OC)cc2)cc1 has what recorded %Inh?
0%

Item Nc1nccc2scc(-c3ccc4c(c3)CCN4C(=O)Cc3cc(F)ccc3F)c12 has what recorded %Inh?
3%

Item FC(F)(F)c1ccc(-c2nn3ncccc3c2-c2ccnc(Nc3cccc(C(F)(F)F)c3)n2)cc1 has what recorded %Inh?
0%

Item CSc1ccc(NC2=C(c3ccccc3Cl)C(=O)NC2=O)cc1 has what recorded %Inh?
5%

Item Cc1ccc(NC(=O)c2cccc(C#N)c2)cc1-c1ccc(C(=O)Nc2ccncc2)cc1 has what recorded %Inh?
0%
